These measurements were taken from patent US8283465B2.

- System: human EPO production, Hep3B cells
- EXPERIMENT SUMMARY: Human EPO production activity in Hep3B cells (EPO-ELISA of culture supernatant)
- Assay type: cell-based
- EXPERIMENTAL SETUP: 24 hr, at 30 μM, values containing %, relative to maximum production
Where a name gives a salt, the structure may show the parent alone.
// reported production activity (%) at 30 μM in vitro, human EPO per item
RESULT TYPE: production activity (%) at 30 μM in vitro, human EPO

MOLECULE: CC(C)(NC(=O)c1c(O)cc(-c2cc(F)cc(F)c2)n2ncnc12)C(=O)O [Example 68, hydrochloride]
RESULT VALUE: 0%
--
MOLECULE: Cc1nnc2c(C(=O)NCC(=O)O)c(O)c(-c3ccccc3)cn12.Cl [Example 112]
RESULT VALUE: 0%
--
MOLECULE: CC(C)c1cc(O)c(C(=O)NCC(=O)O)c2ncnn12 [Example 35, hydrochloride]
RESULT VALUE: 43%
--
MOLECULE: Cl.O=C(O)CNC(=O)c1c(O)ccn2c(CCC3CCCCC3)nnc12 [Example 115]
RESULT VALUE: 0%
--
MOLECULE: Cl.O=C(O)CNC(=O)c1c(O)c(-c2ccccc2)cn2c(-c3ccccc3)nnc12 [Example 111]
RESULT VALUE: 0%
--
MOLECULE: C[C@@H](NC(=O)c1c(O)cc(-c2cc(F)cc(F)c2)n2ncnc12)C(=O)O [Example 64, hydrochloride]
RESULT VALUE: 0%
--
MOLECULE: Cl.O=C(O)CNC(=O)c1c(O)ccc2ncnn12 [Example 107]
RESULT VALUE: 4%
--
MOLECULE: Cl.O=C(O)CNC(=O)c1c(O)cc(CC2CCCCC2)c2ncnn12 [Example 91]
RESULT VALUE: 43%
--
MOLECULE: CCc1c(O)c(C(=O)NCC(=O)O)c2ncnn2c1CC.Cl [Example 4]
RESULT VALUE: 38%
--
MOLECULE: Cl.O=C(O)CNC(=O)c1c(O)cc(CCc2cccc(C(F)(F)F)c2)c2ncnn12 [Example 101]
RESULT VALUE: 6%
--
MOLECULE: CCCCCCc1cc(O)c(C(=O)NCC(=O)O)c2ncnn12.Cl [Example 73]
RESULT VALUE: 34%
--
MOLECULE: CCCc1cc(O)c(C(=O)NCC(=O)O)c2ncnn12 [Example 65, acetic acid hydrochloride]
RESULT VALUE: 49%
--
MOLECULE: O=C(O)CNC(=O)c1c(O)ccc2cnnn12 [Example 11]
RESULT VALUE: 1%
--
MOLECULE: O=C(O)CNC(=O)c1c(O)cc(-c2ccccc2Cl)c2ncnn12 [Example 88]
RESULT VALUE: 14%
--
MOLECULE: C[C@@H](NC(=O)c1c(O)cc(CCc2ccccc2)n2ncnc12)C(=O)O [Example 70, hydrochloride]
RESULT VALUE: 1%
--
MOLECULE: O=C(O)CNC(=O)c1c(O)ccn2c(-c3ccccc3)nnc12 [Example 113]
RESULT VALUE: 0%
--
MOLECULE: Cl.O=C(O)CNC(=O)c1c(O)ccn2c(CCc3ccccc3)nnc12 [Example 114]
RESULT VALUE: 0%
--
MOLECULE: Cl.O=C(O)CNC(=O)c1c(O)cc(Cc2ccccc2)c2ncnn12 [Example 86]
RESULT VALUE: 6%
